Quick list: selectivity ratio per entry.
- test: Selectivity ratio of IC50 for human GES-1 cells to IC50 for human SGC7901 cells
- Type: toxicity
- experimental_parameters: GES-1 cells versus SGC7901 cells, read-out: Ratio IC50
The response must contain the number and no unit.

O=c1cc(-n2cc(Cn3cnc4c(Cl)nc(Cl)nc43)nn2)c2ccccc2o1
5.5
Fc1nc(Cl)c2ncn(Cc3cn(-c4ccnc5ccccc45)nn3)c2n1
6.9
C[C@]12CCC(=O)C[C@@H]1CC[C@@H]1[C@@H]2CC[C@]2(C)C(=O)[C@@H](n3cc(Cn4cnc5c(Cl)nc(Cl)nc54)nn3)C[C@@H]12
1.3

Next up:
Q: Please look up its selectivity ratio: O=c1cc(-n2cc(Cn3cnc4c(Cl)nc(F)nc43)nn2)c2ccccc2o1
Result: 4.6
